Measured EC50, listed per entry for reference.
System: Ileum
Measurement protocol: Antiallergic activity in guinea pig ileum strips assessed as inhibition of histamine-induced anaphylaxis
Format: functional, tissue-based
Test settings: Cavia porcellus
Assay endpoint: EC50

>>> print(df.to_string())
                                    compound  study_system      reading
 0  COc1cc2c(cc1Br)-c1cc3c([O-])cc(=O)oc3cc1OC2(C)C.[Na+]         Ileum     39 µg/mL
 1  COc1ccc2c(c1)C(C)(C)Oc1cc3oc(=O)cc([O-])c3cc1-2.[Na+]         Ileum   13.2 µg/mL
 2  Cc1c2c(cc3oc(=O)cc([O-])c13)OC(C)(C)c1ccccc1-2.[Na+]         Ileum   14.5 µg/mL
 3  CC1(C)Oc2cc3oc(=O)cc([O-])c3cc2-c2ccc(Cl)cc21.[Na+]         Ileum     21 µg/mL
 4  CC1(C)Oc2cc3oc(C(=O)O)cc(=O)c3cc2-c2ccccc21.NCCO         Ileum    150 µg/mL
 5  CN1CCC(=C2c3ccccc3C=Cc3ccccc32)CC1 [CYPROHEPTADINE]         Ileum   0.04 µg/mL
 6  O=C([O-])c1cc(=O)c2c(OCC(O)COc3cccc4oc(C(=O)[O-])cc(=O)c34)cccc2o1.[Na+].[Na+] [CROMOLYN SODIUM]         Ileum  > 200 µg/mL
 7  CC1(C)Oc2cc3oc(=O)cc([O-])c3cc2-c2ccccc21.[Na+]         Ileum     55 µg/mL
 8  CC1(C)Oc2cc3oc(=O)cc([O-])c3cc2-c2ccc(OCCO)cc21.[Na+]         Ileum  > 200 µg/mL
 9  CCCOc1ccc2c(c1)C(C)(C)Oc1cc3oc(=O)cc([O-])c3cc1-2.[Na+]         Ileum      7 µg/mL
10  CC1(C)Oc2cc3oc(=O)cc([O-])c3cc2-c2ccc(O)cc21.[Na+]         Ileum  > 200 µg/mL
